- Target Entity: T1, purified human CD117 ectodomain (R&D Systems #332-SR) (human, UniProt P10721 26-524)
- T1 construct: extracellular domain; Bought protein; also called c-kit; purified recombinant human CD117 ectodomain
- T1 sequence (P10721 26-524): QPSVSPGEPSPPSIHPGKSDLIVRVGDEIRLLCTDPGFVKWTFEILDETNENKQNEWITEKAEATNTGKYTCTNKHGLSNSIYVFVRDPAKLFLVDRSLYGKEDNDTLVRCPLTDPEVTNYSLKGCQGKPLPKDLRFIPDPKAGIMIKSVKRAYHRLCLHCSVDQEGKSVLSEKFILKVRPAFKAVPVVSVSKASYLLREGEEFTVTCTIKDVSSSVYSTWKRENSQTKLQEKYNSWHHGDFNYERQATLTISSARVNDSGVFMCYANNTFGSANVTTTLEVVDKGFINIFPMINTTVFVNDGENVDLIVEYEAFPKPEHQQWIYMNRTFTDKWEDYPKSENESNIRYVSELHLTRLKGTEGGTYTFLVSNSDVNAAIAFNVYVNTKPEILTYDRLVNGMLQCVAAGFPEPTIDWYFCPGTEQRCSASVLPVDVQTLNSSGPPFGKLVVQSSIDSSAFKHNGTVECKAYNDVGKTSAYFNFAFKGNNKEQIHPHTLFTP
- Assay Details: BLI, purified IgG on sensor, soluble ectodomain; apparent monovalent
Field: kon. Provide a value for each of the binders that follow.
Just the number please, in M⁻¹ s⁻¹, no unit attached.

Look up kon for this binder: HC-10/LC-10 (Ab10) (antibody, IgG1, V domains shown, Purified IgG; also called 010) VH: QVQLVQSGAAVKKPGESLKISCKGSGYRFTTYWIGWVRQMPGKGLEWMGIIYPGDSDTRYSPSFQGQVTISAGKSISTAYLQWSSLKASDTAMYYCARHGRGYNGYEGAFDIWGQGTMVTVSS VL: NIQMTQSPSSLSTSVGDRVTITCRASQGIGTSLAWYQQKPGKPPKLLIYDASSLESGVPSRLSGSGSGTDFTLTISSLQPEDFATYYCQQSNSYPITFGQGTRLEIK
348000

Look up kon for this binder: HC-1/LC-1 (Ab1) (antibody, IgG1, V domains shown, Purified IgG (IgG1); also called 001; CK6 derivative Ab1) VH: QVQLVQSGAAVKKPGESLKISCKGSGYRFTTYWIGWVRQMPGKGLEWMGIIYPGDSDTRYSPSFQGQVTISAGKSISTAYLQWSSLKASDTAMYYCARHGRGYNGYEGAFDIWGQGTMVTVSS VL: AIQLTQSPSSLSASVGDRVTITCRASQGVSSALAWYQQKPGKAPKLLIYDASSLESGVPSRFSGSGSGTDFTLTISSLQPEDFATYYCQQFNSYPLTFGGGTKVEIK
302000
